The measurements presented in this section are drawn from the supplement of paper PMC9170038.

tested on: MS2 coat protein; assay: apparent KD of MS2 coat protein; higher = weaker reporter binding; settings: Eterna round: R107; input ligand: tryptophan 2.4 mM
Assay metric: apparent KD of MS2 coat protein
Your answer should be a number followed by the unit of measure.

ACACGAAGCUGAAGGAGCGUGGUAUAAUUUUUUACAUGAGGAUCACCCAUGUCUCAUUUUUCACAGGUAGGUCGCAGAUGCGUGA [JR_SSArginiB_Sub015]    78.7 nM
UUGUUGUUUGGAAGGAGCGUGGAUGAGUGUGGACAUGAGGAUCACCCAUGUUGGAUGAUACCGCAGGUAGGUCGCCGGGUGGUGG [11.aD]    75.9 nM

Please examine the following record next.
May I ask what apparent KD of MS2 coat protein has been recorded for ACAUGAGGAUCACCCAUGUCUGCCACUGAUACCAGCGGAUGCCAACGCCCUUGGCAGCAGAACAUGAGGAUCACCCAUGUAGGCA [Same State Theophylline A GF25] ? 297 nM

###

system: K4 kissing-loop RNA reporter; assay: apparent KD of K4 kissing-loop reporter; higher = weaker reporter binding; conditions: Eterna round: R107; input ligand: none;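 further: bound reporter read as fluorescence of individual clusters on recovered sequencing chips by microscopy, with normalized cluster intensities fitted with a binding model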
Assay metric: apparent KD of K4 kissing-loop reporter (nM)
Answers are plain numbers, in nM.

As a guide, the following entries are already answered.
ACGACGCAUAGUGAUACCAGCAUUAUAUGAGUGAUGUUCUACCUAAAAUGGUAAUAAUUAUGCCCUUGGCAGCACUAUGCGUCAG [KL-SSTheoB3]    409
GUGCGGCUAGUGAUGUUGGUUGCGUGGGAAGGAGCGCAGAAACAUGCAGGUAGGUCGCCCACACCUCUGAAAGGAGGCUAAUUCA [Bisobi]    163
CUUGGCAUGCGCGAUACCAGCGAACAUAGCAAGCUACGGGUAGUGAUGUUAUCUGAAUAACGCCCUUGGCAGCGCACAUGCCGGC [clock]    593
UUUAUUAAGACGGCCGCCACUGAAUCAUAGUGAUGUUAUGAUAUAAUUUUAGUGAUUUUGAUUAGCAGGACCGGGUCAAUUAUUA [#26 K4 Tryptophan B Exclusion]    144
AAUGCAUAGUGAAGGAGCGCGAUUUGCAGUGAUGUUGCAAAUUUAAACAAUCUUAUCUUUUCGCAGGUAGGUCGCACUAUGCAUA [JR_Nu_SSArginiB_Sub021]    88.2

Which apparent KD of K4 kissing-loop reporter is reported with K4 kissing-loop RNA reporter for this entry: CCGGCCCAGCCGGAUACCAGUGCGCCGCAGGGAACGGCGGGCCCAGAGUGAUGUUCGGGACACCCUUGGCAGCCGCCUGGGUCGC [#2 Same State - Theophylline B Attempt #27 (HarryS)] ? 309

###

Provide the recorded apparent KD of MS2 coat protein for the entries that follow.
test system: MS2 coat protein; assay: apparent KD of MS2 coat protein, switch OFF state (with FMN for OFF switches, without FMN for ON switches); designed switch direction (-1 OFF switch, 1 ON switch): -1; higher = weaker reporter binding; conditions: FMN input: 0 or 200 uM; Eterna round: R93 (includes R88 designs)
Answers are plain numbers, in nM.

AAAAAACAUGAGGAUCACCCAUGUCAGGAUAUCGUAAAAAAAAAAAAAAAAAAAAAUGCGAGAAGGGACUGGAA [exclusion1-cac2]    94.5
UUUAUGUGAGGAUAUACGAAUAGUAAGUAAGUAUUACAGACGUAGAAGGCACAUGAGGAUCACCCAUGUGAAUA [JR_Exc004_Sub307]    58.8

Kindly consider the entry below.
What value of measured apparent KD of MS2 coat protein is listed for AGUUGGCGAGGAUAUACAUGAGGAUCACCCAUGUGAGAGAAAAAAGUGAGAAAGAAAAGUAGAAGGCGCUCACA [JL Lego Mod 12] ? 49.7

###

system: MS2 coat protein; assay: apparent KD of MS2 coat protein; designed switch direction (-1 OFF switch, 1 ON switch): -1; higher = weaker reporter binding; settings: input ligand: microRNA oligo, concentration not stated
Assay metric: apparent KD of MS2 coat protein (nM)
One number for each entry, in nM.

Example sequences with recorded apparent KD of MS2 coat protein:
CAGACGGCCGUAGGAUAUGCAGCAAAGACGUGAGCAGAAGGACGAUACAUGAGGAUCACCCAUGUACGUGGGUAGUGCGCAUGC [Veustean] (Eterna round: R96, puzzle: Exclusion NG 1)    14.4
CAGUACUGAGGAUAUACAUGAGGAUCACCCAUGUGCUCUAGCUAGGAUACUAGCAUUAGUAGAAGGCAGUACUG [Fiskers Ex 3 828 mod 8] (Eterna round: R96, puzzle: Exclusion 3)    14.4
ACAUGAGGAUCACCCAUGUGACCACGAUGGCUGAUGUAGACCUAGGAUAUGAGUGAAUAUCUAUCUCAGAAGGAGGUUGACUGG [Deportation 50 - Jieux - Exclusion NG 3] (Eterna round: R96, puzzle: Exclusion NG 3)    52.1
UUGUUCCGUGUAGGAUAUUGGCCUCCCUCGGGCCGAGAAGGACAUGAGGAUCACCCAUGUAUGCUAUUAUCGCGCGUGGCGCAC [Design 94] (Eterna round: R96, puzzle: Exclusion NG 1)    23.1

Form field: reported apparent KD of MS2 coat protein of AGGUCCUUCUGGACACAUGAGGAUCACCCAUGUGAGGUCAGCGAGGAUAUCGGUCAAUAAUGUGACGAGAAGGCGCGGACCGAU [Ex NG3 #58] (Eterna round: R96, puzzle: Exclusion NG 3) 14.8

###

test system: MS2 coat protein; test: apparent KD of MS2 coat protein; designed switch direction (-1 OFF switch, 1 ON switch): -1; higher = weaker reporter binding; details: Eterna round: R95; input ligand: microRNA oligo, concentration not stated
Assay metric: apparent KD of MS2 coat protein (nM)
One number for each entry, in nM.

GAGGAGCAAGGAUAUACGAGGAUAUGGAAGGUUGGAGAGUGACAUGAGGAUCACCCAUGUAGAAGGUGCGAGGG [JR_Exclu2_Sub097] (puzzle: Exclusion 2)    43.4
UAAAACGGAGGAUAUACUGACCCUCAAAACAGACGCGCUGGACAUGAGGAUCACCCAUGUAGAAGGCCGAAUGC [Titeustele] (puzzle: Exclusion 2)    21.7

Now examine the next entry.
Item AGUGGGCUAGGAUAUCGAUGAACUCACAUGAGGAUCACCCAUGUGUCUUCGGUGGGCGCGCGAGAAGGAGUGAGAU [Belaange] (puzzle: Exclusion 5) with MS2 coat protein - apparent KD of MS2 coat protein? 26.9

###

test system: MS2 coat protein; assay: apparent KD of MS2 coat protein; higher = weaker reporter binding; details: Eterna round: R107; input ligand: theophylline 2 mM
We'd kindly ask you to apply these apparent KD of MS2 coat protein classes: bin A (below 20 nM), bin B (20 nM to below 30 nM), bin C (30 nM or more)

Here's what some known entries look like.
GCGGACAUGAGGAUCACCCAUGUAAAUCCUCGAGGACCGGUACGGCCGCCACUCGAACGAGUGGCGCGCGAGCGCGCGCUCGCGC [aBa]    bin C
GGUAGACGGACGGCCGCCACUCACAUGAGGAUCACCCAUGUAUAGUUGGUAAUCUGGGUUCAGGAGAGGACCGGGUCCUUGUCAG [theeternabot_exclusion_MS2_Trp_B_43]    bin B
CUACAUUUGUAGAAACCGGUCACCAUUACUCGAGGACCGGUACGGCCGCCACUCGUGUCAUGUGAUACAUGAGGAUCACCCAUGU [Tryptophan A 10]    bin B
UAACAUGAGGAUCACCCAUGUUUGAAGGAACGAGGACCGGUACGGCCGCCACUCGACGAGUGGAUGAGAAGUGGGAUUGUGUGCU [Same State Trp A GF8]    bin A
CCUCGGGACCGAAGGAGCGAGAUAACAACAAUGGGUCUCUACACAUGAGGAUCACCCAUGUCUCAGGUAGGUCGCGGUACCUUAG [Exclusion Arginine B GF23]    bin C

Class label required: GUACAUGAGGAUCACCCAUGUAUAGUUGAAGGAGCGACCAGAGGGUCAGGUAGGUCGCAGCACAUGGCGUAAACCCGUGUAUGCC [#1 Exclusion - Arginine A Attempt #23 (Inspired by Pi)] bin B

###

For each record, write down the corresponding apparent KD of MS2 coat protein.
system: MS2 coat protein; test: apparent KD of MS2 coat protein; designed switch direction (-1 OFF switch, 1 ON switch): -1; higher = weaker reporter binding; conditions: input ligand: none
Answers are plain numbers, in nM.

GUAAACGAAGAGGAUAUUUGAUAUCAAAGCUUCAAAGAAGGCUUCACAUGAGGAUCACCCAUGUGAUCUUCAAA [Mat - Exclusion 6 - JL Mod - D18] (Eterna round: R97, puzzle: Exclusion 6)    23.3

Next up:
# get_value(readout= apparent KD of MS2 coat protein, system= MS2 coat protein) for GCAAGAUUCUGAGGAUAUGCGCUACAUCCCACAGCAGAAGGCGGAAAUUGACUGACAUGAGGAUCACCCAUGUGAUCCGCUUUC [Eternabot solution 33] (Eterna round: R96, puzzle: Exclusion NG 1) 17.7
